Hey, just so you know, these numbers are from ChEMBL document CHEMBL3886921.

tgt: Voltage-gated calcium channel
procedure.text: Functional Drug Screening System (FDSS): Calcium mobilization responses to KCl depolarization were evaluated by measuring the intensity of calcium-mediated fluorescent signal in the presence of BD Calcium Assay Dye (BD Biosciences, Franklin Lakes, N.J., U.S.A.), utilizing a Functional Drug Screening System (FDSS) by Hamamatsu Corporation (Bridgewater, N.J. U.S.A.).Twenty-four hr prior to assay, cells were seeded in clear-base poly-D-lysine-coated 384-well plates (BD Biosciences) at a density of 5,000 cells per well in culture medium and grown overnight in 5% CO2 at 37° C. On the day of assay, growth media were removed, and cells were loaded with BD calcium assay dye (BD Biosciences) for 35 min at 37° C. under 5% CO2 and then for 25 min at room temp. Utilizing the FDSS, cells were exposed to representative compounds of Formula (I) at varying concentrations, and intracellular calcium was measured for 5 min prior to the addition of 50 mM KCl for an additional 3 min of measurement.
assay.readout: pIC50
// field semantics: pIC50 = negative decimal log of concentration (mol/L)

// recorded pIC50 for COc1ccccc1-n1nc(OC2CC(C)(C)C(=O)C(C)(C)C2)cc1-c1ccc(Cl)cc1 : 8.01
